Assay: Pharmacokinetic profile in fasted beagle dogs
Type: in vivo
Settings: dog, blood, po, 1 mg/kg, capsule of spray dried dispersion: 10% Compound A, 40% HPMCAS-LG, 3 fasted beagle dogs

compound	unit_string	Cmax
Cn1c(Cn2ccc(C(F)(F)F)c(Oc3cc(Cl)cc(C#N)c3)c2=O)n[nH]c1=O [Compound A]	µM	7.23

----------
Experiment: Pharmacokinetic profile in fasted beagle dogs
Format: in vivo
Settings: dog, blood, po, 1 mg/kg, comparison capsule: 30% crystalline Compound A without polymer, 5% sodium lauryl sulfate, 3 fasted beagle dogs
experimental_endpoint: Cmax (µM)

compound	numeric_readout
Cn1c(Cn2ccc(C(F)(F)F)c(Oc3cc(Cl)cc(C#N)c3)c2=O)n[nH]c1=O [Compound A]	3.46

----------
Assay: Pharmacokinetic profile in fasted beagle dogs
Assay type: in vivo
Conditions: dog, blood, po, 1 mg/kg, capsule of spray dried dispersion: 10% Compound A, 40% HPMCAS-LG, 3 fasted beagle dogs, read-out: AUC0-24

compound_string	AUC(0-t)
Cn1c(Cn2ccc(C(F)(F)F)c(Oc3cc(Cl)cc(C#N)c3)c2=O)n[nH]c1=O	137 µM·h

----------
Experiment: Pharmacokinetic profile in fasted beagle dogs
Assay type: in vivo
Conditions: dog, blood, po, 1 mg/kg, comparison capsule: 30% crystalline Compound A without polymer, 5% sodium lauryl sulfate, 3 fasted beagle dogs, read-out: AUC0-24

molecule	AUC(0-t)
Cn1c(Cn2ccc(C(F)(F)F)c(Oc3cc(Cl)cc(C#N)c3)c2=O)n[nH]c1=O [Compound A]	52.4 µM·h
